src = PubChem BioAssay (NCI)

protocolNotes: NCI Yeast Anticancer Drug Screen. Data for the rad50 strain (AID 155)
assayConditions: S. cerevisiae rad50 strain growth inhibition; at 50.0 µM
Protocol: Growth inhibition of yeast strains with defined genetic alterations is measured as a screen for potential anti-cancer activity. Selected strains with alterations in DNA damage repair or cell cycle control were exposed to compounds and growth inhibition was measured relative to vehicle treated controls. The strain used in this assay is rad50
The panel holds about 79,000 compounds, 15% with a hit somewhere; the sample as a whole holds those more often. The source made the active and inactive calls. No stated cut-off is given here; in the data, active means growth inhibition above about 70%; inactive means the rest.
Possible outcomes: Y (active), N (inactive)

1. Cc1cc[c]([Sn]([Cl])([O][Sn]([Cl])([c]2ccc(C)cc2)[c]2ccc(C)cc2)[c]2ccc(C)cc2)cc1	Y
2. O=C(Nc1cccc2ccccc12)OCCCCCCl	Y
3. CSC(=S)N/N=C\C(O)C(O)C(O)C(O)CO (centres undefined)	Y
4. C/C=C/C1=C(Cl)C(=O)[C@@H](Cl)[C@@]1(O)C(=O)OC	Y
5. Cc1ccccc1NC(=S)Nc1ccccc1O	Y
6. CCOC(=O)c1cc(C)c(O)c(C(=O)OCC)c1	N
7. Nc1cc(S(=O)(=O)O)cc2cc(S(=O)(=O)O)c(N=Nc3ccccc3)c(O)c12	Y
8. CC(COC(=O)C(c1ccccc1)C1C=CCCC1)CN1CCCC1 (centres undefined)	Y
9. COc1ccccc1C1c2cc3c(cc2OC2(OC)COC(=O)C12)OCO3 (centres undefined)	N
10. O=C(c1ccccc1)C(C(=O)c1ccccc1)c1ccc2ccccc2n1	N
11. CC(C)(Br)C(=O)c1ccc([N+](=O)[O-])o1	Y
12. Nc1ccc(S(=O)(=O)Nc2ccccc2)cc1	N
13. CCCCCCC(=O)OCCN(CCOC(=O)CCCCCC)C(=O)C(C)OC(=O)CCCCCC (centres undefined)	Y
14. Cc1ccc(S(=O)(=O)CC2(Br)Cc3ccccc3C2=O)cc1 (centres undefined)	Y
15. CCn1c2ccccc2c(=O)c2c(OC)ccc(OC)c21	Y
16. NC(=O)C1CCN(N=Nc2c(-c3ccccc3)n[nH]c2-c2ccccc2)CC1	Y
17. Cc1cc(Cl)n2c(nc3ccccc32)c1C#N	Y
18. ClC1(Cl)c2ccccc2-c2ccccc21	N
19. CCNc1cc(N)[n+](CC)c2n[nH]c(/N=C/c3cc(Cl)cc(Cl)c3O)c12	Y
20. COc1ccc(NC(=O)CC(=O)n2nc(-c3ccccc3)c(N=Nc3ccc(C)cc3)c2-c2ccccc2)cc1	N
21. Cc1cc(SCC(=O)c2ccc(Br)cc2)cc(C)[o+]1	Y
22. Nc1ccc2c(SCc3ccc([N+](=O)[O-])cc3)c3ccccc3nc2c1	Y
23. O=C1C(=O)C(Br)(c2ccccc2)C(=O)C1c1ccccc1 (centres undefined)	N
24. CCCCCCCCCCCCNCc1ccc(Cl)c(Cl)c1	Y
